Measured values drawn from ChEMBL document CHEMBL2046381 for this set.

Molecular target: Histone deacetylase 1 (Homo sapiens)
Sequence (Q13547 whole entry): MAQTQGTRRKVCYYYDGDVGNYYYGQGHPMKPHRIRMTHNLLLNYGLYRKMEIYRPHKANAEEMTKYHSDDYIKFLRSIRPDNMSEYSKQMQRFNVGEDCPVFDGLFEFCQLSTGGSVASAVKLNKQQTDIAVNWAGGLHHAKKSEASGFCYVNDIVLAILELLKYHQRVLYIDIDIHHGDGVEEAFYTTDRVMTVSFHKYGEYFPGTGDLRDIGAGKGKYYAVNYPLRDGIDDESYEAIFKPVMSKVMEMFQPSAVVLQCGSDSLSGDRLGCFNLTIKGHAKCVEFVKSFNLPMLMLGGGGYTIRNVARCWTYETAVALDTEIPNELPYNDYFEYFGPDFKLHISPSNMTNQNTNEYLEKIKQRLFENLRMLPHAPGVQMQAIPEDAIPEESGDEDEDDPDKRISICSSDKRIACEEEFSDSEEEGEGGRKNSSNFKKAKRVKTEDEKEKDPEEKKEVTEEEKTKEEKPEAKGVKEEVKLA
Assay: Inhibition of human recombinant HDAC1 using Boc-lys(Ac)-AMC as substrate preincubated for 20 mins with substrate measured after 60 mins by fluorescence analysis
MEASURE_NAME: IC50 (µM)
# number only, unit µM dropped from output

Field request: IC50 | item: "COc1ccc(C/C(=N\O)C(=O)NCCSSCCNC(=O)/C(Cc2ccc(OC)c(Br)c2)=N/O)cc1Br" 0.043

Field request: IC50 | item: "O=C(NCCS)/C(Cc1cc(Br)c(O)c(Br)c1)=N/O" 0.0002

Field request: IC50 | item: "O=C(NCCS)/C(Cc1ccccc1)=N/O" 0.012
